Test: Oral bioavailability in Wistar rat at 10 mg/kg
Format: ADME, organism-based
Conditions: in vivo
property name: bioavailability (%)

[[record]]
given_smiles = "CN(C)CC(C)(C)Cn1c(CC(C)(C)C)nc2cc(/C=C/C(=O)NO)ccc21"
endpoint_unit = "%"
experimental_value = 4

[[record]]
given_smiles = "CCCCc1nc2cc(/C=C/C(=O)NO)ccc2n1CCNC(C)C"
endpoint_unit = "%"
experimental_value = 9

[[record]]
given_smiles = "CCCCCCc1nc2cc(/C=C/C(=O)NO)ccc2n1CCNCC"
endpoint_unit = "%"
experimental_value = 1.4

[[record]]
given_smiles = "CCCCc1nc2cc(/C=C/C(=O)NO)ccc2n1CCN(CC)CC.Cl.Cl"
endpoint_unit = "%"
experimental_value = 3.1

